Hello, the source for this data is paper PMC10817493, in case you need it.

Test system: K562, BEL-7402, SGC-7901, A549 and HeLa cells
Experiment: Cytotoxic activity, summary over five human tumor cell lines
Format: cell-based
Details: range over compounds 5 and 7 and K562, BEL-7402, SGC-7901, A549, HeLa, read-out: IC50 values, range over the five cancer cell lines
pIC50: −log10 of the molar value.
endpoint_name: pIC50

Given COc1cc(-c2ccc(O)c(O)c2)c(OC)c(O)c1-c1ccc(O)cc1 [Compound 7, 3″-hydroxyterphenyllin] , state its recorded pIC50.
4.22 to 5.48

Given COc1cc(-c2ccccc2)c(OC)c(O)c1-c1ccc(OCC=C(C)C)c(O)c1 , state its recorded pIC50.
4.22 to 5.48

----------
System: human liver cancer cells (BEL-7402)
Test: Cytotoxic assay (modified MTT), BEL-7402
Type: cell-based
Settings: Homo sapiens, Bel-7402, BEL-7402 cells; mean ± SD of three parallel experiments
IC50 by entry:

Example cases with answers are listed next.
COc1ccc(O)c(-c2c(OC)cc(-c3ccc(O)cc3)c(OC)c2O)c1 :: > 20 µg/mL
COc1cccc2c1C(=O)OCc1cc(COC(C)=O)cc(O)c1O2 :: > 20 µg/mL
COc1cccc2c1C(=O)OCc1cc(C(=O)O)cc(O)c1O2 :: > 20 µg/mL
COc1c(-c2ccc(O)cc2)cc(O)c(-c2ccc(O)cc2)c1OC :: > 20 µg/mL
COc1cc(-c2ccccc2)c(OC)c(O)c1-c1ccc(OCC=C(C)C)c(O)c1 :: 6.69 µM

Next molecule, IC50 to be filled in.
Given COc1cc(-c2ccc(O)cc2)c(OC)c(O)c1-c1ccc(O)cc1 , state its recorded IC50.
> 20 µg/mL
